test system: nude mice, LX-1 lung xenograft intrarenal, tumor weight T/C; experiment: NCI In Vivo Anticancer Drug Screen. Data for tumor model Human Lung LX-1 Xenograft (intrarenal inoculation) in NU/NU Swiss (nude) mice; details: endpoint: mean tumor weight change; dose: 100.0 mg/kg/injection; schedule: Q01DX010 (sc); vehicle: water; higher = larger tumour
Records with an inconclusive call do not appear.
Reported T/C values for the following compounds.

[
  {
    "compound": "O=C(O)CSc1nc(-c2ccccc2)c(-c2ccccc2)n1-c1ccccn1",
    "T/C": "60 % of control"
  },
  {
    "compound": "O=C(O)C1CSCN1 (centres undefined)",
    "T/C": "68 % of control"
  },
  {
    "compound": "O=C1C(=O)c2ccccc2C(O)=C1CC=C(Cl)Cl",
    "T/C": "117 % of control"
  },
  {
    "compound": "O=c1[nH]c(=O)n(C2CC(O)C(CO)O2)cc1F (centres undefined)",
    "T/C": "39 % of control"
  }
]
